# credit: PubChem BioAssay (NCI)

# measurement-notes: NCI Yeast Anticancer Drug Screen. Data for the bub3 strain (AID 167)
# experimental-parameters: S. cerevisiae bub3 mutant strain, at 33.0 µM
Compounds without any hit were thinned out: in the full panel of roughly 79,000, 15% have a hit. The source made the active and inactive calls. Rule as the data show it: active = growth inhibition above about 70%; inactive = the rest.
I would appreciate it if you answered using one of these outcomes: active, inactive

Please review the following examples before continuing.
smiles-record: CN(C)c1nc(=Nc2cccc(Cl)c2)ss1
label-class: active

smiles-record: CCO/C(C)=C(/C#N)C(N)=S
label-class: inactive

smiles-record: NC1=NNC2(C(N)=N1)c1ccccc1-c1ccccc12
label-class: inactive

Lookup: GET /call?item= Cc1cc(C(C)(C)CC(C)(C)C)ccc1O returns the recorded outcome of this test.
Found: active

Lookup: // param item: Nc1cc(N)c(N=Nc2cccc3c(S(=O)(=O)O)cccc23)cc1N=Nc1cc([N+](=O)[O-])ccc1O ; yields the recorded call
Found: inactive

Lookup: Each compound tested received a call. Report the one for O=C(O)Cc1cc(F)ccc1C(=O)O .
Found: inactive

###

# measurement-notes: NCI Yeast Anticancer Drug Screen. Data for the mlh1 rad18 strain (AID 175)
# experimental-parameters: S. cerevisiae mlh1 rad18 strain growth inhibition; at 50.0 µM; active compounds read high
About 79,000 compounds went through this panel and 15% of them were active in at least one assay; those are over-represented in the sample as a whole.
Measured growth inhibition by item
# unit: % | format: bare number

Observe how each entry below is paired with its result.
molecule: CC1CC(C)(C)CC(OCCN2CCCCC2)(c2ccccc2)C1 (centres undefined)
growth inhibition, %: 84.8
--
molecule: CC(/C=C/c1ccccc1)=N\NC(N)=S
growth inhibition, %: 58.8

Lookup: Using the record for CN(C)c1ccc(N=Nc2ccncc2)cc1 , report its growth inhibition.
Found: 67.7

Lookup: I would be grateful if you could share the reported growth inhibition for CC1=C(SCc2ccccc2)C(=O)c2ccccc2C1=O .
Found: 73.5

###

We begin with a simple list: items and their reported growth inhibition.
# measurement-notes: NCI Yeast Anticancer Drug Screen. Data for the mec2-1 strain (AID 157)
# experimental-parameters: S. cerevisiae mec2-1 strain, at 1.2 µM, active compounds read high
The panel holds about 79,000 compounds, 15% with a hit somewhere; the sample as a whole holds those more often.
The response must be a number in % with no trailing unit.

compound: Cc1ccc2c3ccc4c(c3n(C)c2c1)C(=O)C=CC4=O
growth inhibition / %: -22

compound: CCCCOP(=O)(CCCP(=O)(OCCCC)OCCCC)OCCCC
growth inhibition / %: -6

compound: C=C(Cl)COC(=O)Nc1cccc(Cl)c1
growth inhibition / %: -19

Lookup: Given the compound c1ccc2c(OCC3CO3)cccc2c1 (configuration not stated) , what is its reported growth inhibition?
Found: 1

Lookup: Reported growth inhibition, compound NC(=O)c1c([N+](=O)[O-])cc(C(F)(F)F)cc1[N+](=O)[O-] : ____
Found: 0

Lookup: Item Cc1cc(C(C)(C)CC(C)(C)C)ccc1O has what recorded growth inhibition?
Found: -41

###

# measurement-notes: NCI Yeast Anticancer Drug Screen. Data for the rad50 strain (AID 155);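 also: 0% = growth of vehicle-only cultures of the same strain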
# experimental-parameters: S. cerevisiae rad50 strain growth inhibition; at 3.7 µM; active compounds read high
The panel holds about 79,000 compounds, 15% with a hit somewhere; the sample as a whole holds those more often.
# cutoff 10% applies to growth inhibition; >= gives fulfilled, < gives not fulfilled

compound: Cc1cccc(/C=N/NC(=S)N2CCCC2)n1
label-class: not fulfilled

Lookup: Decide: is the reported value of growth inhibition for CCOC(=O)c1ccc(NC(=O)O/N=C(/Cl)C(C)C)cc1 equal to or greater than 10%?
Found: not fulfilled

Lookup: State whether the measured growth inhibition reaches 10%, counting equality as reaching it, for CC1=NOC(=O)/C1=C/c1ccc2c(c1)OCO2
Found: not fulfilled

###

# measurement-notes: NCI Yeast Anticancer Drug Screen. Data for the mlh1 rad18 strain (AID 175)
# experimental-parameters: S. cerevisiae mlh1 rad18 strain growth inhibition; at 50.0 µM; active compounds read high
# Experimental: Growth inhibition of yeast strains with defined genetic alterations is measured as a screen for potential anti-cancer activity. Selected strains with alterations in DNA damage repair or cell cycle control were exposed to compounds and growth inhibition was measured relative to vehicle treated controls. The strain used in this assay is mlh1 rad18
Compounds without any hit were thinned out: in the full panel of roughly 79,000, 15% have a hit.
Listed compounds paired with reported growth inhibition
Express your answer in %, writing the number without its unit.

The cases that follow already have their growth inhibition on record.
compound: CC(O)=NC(Cc1ccc2ccccc2c1)C(O)=NC(Cc1ccc(Cl)cc1)C(O)=NC(Cc1c[nH]c2ccccc12)C(O)=NC(CO)C(O)=NC(Cc1ccc(O)cc1)C(O)=NC(CCCN=C(N)N)C(O)=NC(CC(C)C)C(O)=NC(CCCN=C(N)N)C(=O)N1CCCC1C(O)=NC(C)C(=N)O (centres undefined)
growth inhibition, %: 58.4

compound: CCCCCOC(=S)SC(=O)OCC
growth inhibition, %: 96.6

compound: CCc1c(Cl)c(C)cc(O)c1Cl
growth inhibition, %: 89.5

// below: growth inhibition requested for another compound
Lookup: Reported growth inhibition for CCCCCCC(O)CNCc1ccnc2ccc(OC)cc12 (centres undefined) : what is it?
Found: 52.2

###

Documented growth inhibition across a set of molecules
# measurement-notes: NCI Yeast Anticancer Drug Screen. Data for the wt2 strain (AID 169);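 also: 0% = growth of vehicle-treated yeast cultures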
# experimental-parameters: S. cerevisiae wt2 strain growth inhibition; at 1.2 µM; active compounds read high
Compounds without any hit were thinned out: in the full panel of roughly 79,000, 15% have a hit.
The answer is to be given in %; state only the numeric part.

molecule: S=c1[nH]c2cc3ccccc3cc2[nH]1
unit-info: %
growth inhibition: -55
--
molecule: CCC(=O)c1cc(C(=O)C(=S)SC)cc(C(=O)C(=S)SC)c1
unit-info: %
growth inhibition: 19
--
molecule: O=C(NCCCNCCN1C(=O)c2cccc3cc([N+](=O)[O-])cc(c23)C1=O)c1cc(-c2ccccc2)nc2ccccc12
unit-info: %
growth inhibition: -1
--
molecule: c1ccc2[nH]c(-c3cscn3)nc2c1
unit-info: %
growth inhibition: -3
--
molecule: Brc1ccccc1-c1ncc(-c2ccccc2)o1
unit-info: %
growth inhibition: -46

Lookup: May I ask what growth inhibition has been recorded for Oc1[nH]c2ccccc2c1N=NC(=S)N1CCCCC1 ?
Found: 5

Lookup: Requested field: growth inhibition. Item: O=C1/C(=C/c2ccccc2)CCCC1CN1CCCCC1 (centres undefined)
Found: 19

Lookup: What measured growth inhibition goes with Oc1ccc(SCc2ccc(NCc3ccccc3)cc2)cc1 ?
Found: -16

###

# measurement-notes: NCI Yeast Anticancer Drug Screen. Data for the mlh1 strain (AID 171);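 also: 0% = growth of vehicle-treated control cultures of the same strain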
# experimental-parameters: S. cerevisiae mlh1 strain growth inhibition; at 100.0 µM
This is part of a sample that, as a whole, favours compounds with a hit. Of some 79,000 tested, about 15% had one in any assay. Calls of active or inactive are those of the source. Cut-off read from the data, not from the text of the source: active = growth inhibition above about 70%; inactive = the rest.
Respond with a class label; see active, inactive

Examples from the recorded data:
compound: CC1=NOC(=O)/C1=C/c1ccc2c(c1)OCO2
label-class: inactive
--
compound: CCOc1ccc(NC(=O)C2=C(C)NC(C)=C(C(=O)Nc3ccc(OCC)cc3)C2c2cccc([N+](=O)[O-])c2)cc1
label-class: active
--
compound: CN(C)Cc1cc(N=Nc2ccc(Cl)cc2)ccc1OC(=O)c1ccccc1
label-class: inactive
--
compound: C[C@@](O)(/C=C/[C@H]1CC=CC(=O)O1)[C@@H](C[C@@H](O)\C=C/C=C\C=C\CO)OP(=O)(O)O
label-class: active

Lookup: Called result for CCOC1(c2cccc([N+](=O)[O-])c2)c2ccccc2Oc2ccccc21
Found: inactive

Lookup: Recorded call for Cc1nc2ccccc2nc1NNc1ccccc1 ?
Found: inactive

Lookup: Record request — test call for Cc1ccc(NC(=O)/C(CC2N=c3c(ccc4c(O)c5ccccc5c(O)c34)=NC2O)=N/NC(C)(C)C)cc1 (stereo not given)
Found: inactive

Lookup: # fetch the recorded call for CCOc1ccccc1N=Cc1c2ccccc2cc2ccccc12 here
Found: active

Lookup: Dear colleague, could you share the recorded outcome for O=C(O)C1CC(c2ccccc2)=NN1c1ccccc1 (stereo not given) when you have a moment?
Found: active

Lookup: Outcome? O=C1C(Br)=C(c2ccccc2)O/C1=C/C(=O)c1ccc(Br)cc1
Found: active

###

The entries below are paired with their reported growth inhibition.
# measurement-notes: NCI Yeast Anticancer Drug Screen. Data for the mlh1 rad18 strain (AID 175)
# experimental-parameters: S. cerevisiae mlh1 rad18 strain growth inhibition; at 5.0 µM (retest, dose inferred, filed as 0.5); active compounds read high
This is part of a sample that, as a whole, favours compounds with a hit. Of some 79,000 tested, about 15% had one in any assay.
# number only, unit % dropped from output

compound: S=c1[nH]c2cc3ccccc3cc2[nH]1
unit-info: %
growth inhibition: 9

compound: Cc1c(C(C)C)cc(OCCO)cc1C(C)C
unit-info: %
growth inhibition: -3

compound: Cc1ccc(NCCNCCO)c2c(=O)c3cc(O)ccc3sc12
unit-info: %
growth inhibition: 13

compound: CC(C)CCCC(C)C1CCC2C3CCC4=CC(=O)/C(=C\O)CC4(C)C3CCC12C (stereo unspecified)
unit-info: %
growth inhibition: 2

compound: O=C1C=C(N2CCN(c3ccccn3)CC2)C(=O)c2c(O)ccc(O)c21
unit-info: %
growth inhibition: 10

Would you kindly look at the next entry?
Lookup: GET /values?readout=growth inhibition&item= CNC(=O)OCc1c(COC(=O)NC)c(-c2ccc(Cl)cc2)n2c1CCC2
Found: 4
